- Tested on: Plasmodium falciparum
- Assay Explanation: Antiplasmodial activity against Plasmodium falciparum NF54 assessed as reduction in malarial growth
- Type: functional, organism-based
pIC50: −log10 of the molar value.
Some molecules, each annotated with its measured pIC50.
Measure Name: pIC50

>>> observed_measurement("C[C@H]1[C@H](CC(=O)c2ccc(C(=O)CC[C@H]3O[C@H]4O[C@@]5(C)CC[C@H]6[C@H](C)CC[C@@H]([C@H]3C)[C@@]46OO5)cc2)O[C@H]2O[C@@]3(C)CC[C@H]4[C@H](C)CC[C@@H]1[C@@]24OO3")
8.77
>>> observed_measurement("C[C@@H]1CC[C@H]2[C@@H](C)C(CC#Cc3ccc(C#CCC4O[C@H]5O[C@@]6(C)CC[C@H]7[C@H](C)CC[C@@H]([C@H]4C)[C@@]57OO6)cc3)O[C@H]3O[C@@]4(C)CC[C@@H]1[C@]32OO4 (stereo partly drawn)")
7.52
>>> observed_measurement("C[C@@H]1CC[C@H]2[C@@H](C)C(CC(=O)c3cccc(C(=O)CC4O[C@H]5O[C@@]6(C)CC[C@H]7[C@H](C)CC[C@@H]([C@H]4C)[C@@]57OO6)c3)O[C@H]3O[C@@]4(C)CC[C@@H]1[C@]32OO4 (stereo in doubt)")
8.72

====

IC50 values by entry
- Test system: P388
- Assay Explanation: Antiproliferative activity against mouse P388 cells assessed as cell growth inhibition incubated for 72 hrs by MTT assay
- Format: functional, cell-based
- Condition Set: P388, 72 h
Measure Name: IC50 (nM)

>>> observed_measurement("C[C@@H]1CC[C@H]2[C@@H](C)C(CCSCCC3O[C@@H]4O[C@]5(C)CC[C@@H]6[C@@H](C)CC[C@H]([C@@H]3C)[C@]46OO5)O[C@H]3O[C@@]4(C)CC[C@@H]1[C@]32OO4 (stereo not given in full)")
640
>>> observed_measurement("CO[C@@]12[C@H](COC(N)=O)C3=C(C(=O)C(C)=C(N)C3=O)N1C[C@@H]1N[C@@H]12 [MITOMYCIN]")
60
>>> observed_measurement("CC(=O)O[C@H]1C(=O)[C@@]2(C)[C@H]([C@H](OC(=O)c3ccccc3)[C@]3(O)C[C@H](OC(=O)[C@H](O)[C@@H](NC(=O)c4ccccc4)c4ccccc4)C(C)=C1C3(C)C)[C@]1(OC(C)=O)CO[C@@H]1C[C@@H]2O [PACLITAXEL]")
0.1
>>> observed_measurement("C[C@H]1[C@@H](CCNC(=O)CC[C@H]2O[C@H]3O[C@@]4(C)CC[C@H]5[C@H](C)CC[C@@H]([C@H]2C)[C@@]35OO4)O[C@H]2O[C@@]3(C)CC[C@H]4[C@H](C)CC[C@@H]1[C@@]24OO3")
16800

====

- Test system: UACC-62
- Assay Explanation: Antiproliferative activity against human UACC-62 cells assessed as reduction in cell viability incubated for 48 hrs by SRB assay
- Format: functional, cell-based
- Condition Set: UACC-62, 48 h
pIC50: −log10 of the molar value.
Measure Name: pIC50

>>> observed_measurement("COc1cc([C@@H]2c3cc4c(cc3[C@@H](O[C@@H]3O[C@@H]5CO[C@@H](C)O[C@H]5[C@H](O)[C@H]3O)[C@H]3COC(=O)[C@H]23)OCO4)cc(OC)c1O [ETOPOSIDE]")
6.08
